We begin with a simple list: items and their reported z-score.
- runDescription: S. cerevisiae RM11-1a growth modifiers, primary screen, strain RM11-1a, OD600, basal, 24 h (AID 1177);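 also: cultures grown under basal conditions with no added stressor; test concentration not given here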
- settings: OD600, 24 h, higher = more signal, called active from +8 up or from −8 down

{"columns": ["molecule", "z-score"],
 "data": [
  ["CC1(C)O[C@H]2OC([C@H](O)CON3C(=O)c4ccccc4C3=O)[C@H](O)[C@H]2O1 (stereo partly specified)", -0.854],
  ["C[C@@H]1CC[C@H]2C(=O)O[C@@H](CN=[N+]=[N-])CN2[C@H]1c1ccc(Br)cc1", 4.32],
  ["CCN1C(=O)[C@H]2[C@H]3[C@H](O)[C@H](O)CC(=NOCC[C@@H]4C=C[C@H](OC(C)=O)[C@@H](COC(C)=O)O4)[C@@H]3CC[C@H]2C1=O", -0.183],
  ["CN1CCc2nc(-c3ccccc3)c(-c3ccccc3)cc2C1", 0.298],
  ["COc1ccc(COC(=O)NN=C2C[C@@H](O)[C@@H](O)[C@@H]3[C@@H]4C(=O)N(C[C@@H]5CCCO5)C(=O)[C@@H]4CC[C@H]23)cc1", 0.293],
  ["CON(C)C(=O)c1nnc2c(n1)[nH]c1ccccc12", -0.915],
  ["CCOC(=O)CCN1C(=O)[C@H]2[C@H]3[C@H](O)[C@H](O)CC(=NNC(=O)OCc4ccc(OC)cc4)[C@H]3CC[C@H]2C1=O", -0.595],
  ["CC(CCN1CCCc2nc(C)c(C)cc21)=NO[C@H](C)c1cn([C@@H]2COC[C@H]2O)nn1", 0.836],
  ["CC(C)=NOC(C)CN1CCCc2nc(C)c(C)cc21 (stereo unspecified)", -0.0702],
  ["CCN1C(=O)[C@H]2[C@H]3[C@H](O)[C@H](O)CC(=NOC[C@@H](O)COCc4ccco4)[C@H]3CC[C@H]2C1=O", -0.178],
  ["CCOC(=O)[C@H](Cc1ccccc1)NC(=O)CCC1CC(OC(=O)NCc2cccc3ccccc23)CC2(CCCC(COC(=O)NCCc3ccccc3OC)O2)O1 (stereo partly specified)", 0.166],
  ["C=CCOCC1CN2[C@@H](CC[C@@H](C)[C@@H]2c2ccc(Br)cc2)C(=O)O1 (stereo partly specified)", 1.14],
  ["CON=C(C)CCN1CCCCc2nc(C)c(C)cc21", -0.11],
  ["CCN1C(=O)[C@H]2[C@H]3[C@H](O)[C@H](O)CC(=NO[C@@H]4O[C@H](CO)[C@@H](O)[C@H](O)[C@H]4O)[C@H]3CC[C@H]2C1=O", -0.782],
  ["C[C@@H](c1ccccc1)N1C(=O)[C@H]2[C@H]3[C@H](O)[C@H](O)CC(=NOC[C@@H](O)COCc4ccco4)[C@H]3CC[C@H]2C1=O", -0.286],
  ["CC(C)=CCCC(C)=CCON=C1C[C@@H](O)[C@@H](O)[C@@H]2[C@@H]3C(=O)N(C4CCCCC4)C(=O)[C@@H]3CC[C@H]12", 0.577]
]}

###

- Tested on: Noggin (protein binding on small-molecule microarray)
- runDescription: Noggin binders on small-molecule microarray, primary screen, biochemical, 635/667 nm fluorescence (AID 1095);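 also: score merges 667 nm feature fluorescence with signal to noise over triplicate slides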
- settings: 635 nm fluorescence, higher = more signal
We begin with a simple list: items and their reported composite z-score.
recordedEndpoint: composite z-score

{"columns": ["molecule", "dataValue"],
 "data": [
  ["O=C1C2=CC[C@H]3C(=O)N(Cc4ccccc4)C(=O)[C@H]3[C@H]2[C@H](O)[C@@H]2O[C@H]12", -0.0873],
  ["COC(=O)[C@H](C)NC(=O)CCC1CC(OC(=O)NCc2cccc3ccccc23)CC2(CCCC(COC(=O)NCCC(C)C)O2)O1 (stereo partly specified)", 0.352],
  ["C=CC[C@@H]1C=C[C@H](ON=C(C)CCN2CCCc3nc(C)c(C)cc32)[C@@H](CO)O1", 1.09],
  ["CON=C(C)CCN1CCCCc2nc(C)c(C)cc21", 0.572],
  ["COc1ccc(COC(=O)NN=C2C[C@@H](O)[C@@H](O)[C@@H]3[C@@H]4C(=O)N([C@@H](C)c5ccccc5)C(=O)[C@@H]4CC[C@@H]23)cc1", 0.574],
  ["O=C1CCCC=C1C(O)C1CCCCC1 (stereo unspecified)", -0.0241],
  ["CC(C)CON=C1C[C@@H](O)[C@@H](O)[C@@H]2[C@@H]3C(=O)N([C@@H](C)c4ccccc4)C(=O)[C@@H]3CC[C@@H]12", 0.347],
  ["CC(CCC(=O)OC[C@H]1O[C@H](C#Cc2ccccc2)C=C[C@@H]1Oc1ccc(C)cc1)=NO[C@H](C)c1cn([C@@H]2COC[C@H]2O)nn1", 0.375],
  ["CO[C@@H]1[C@H](O)CO[C@H]1C=Cc1ccccc1", 0.396],
  ["CO[C@@H]1COC(=O)[C@H](COCc2ccccc2)NC(=O)CC=C[C@@H](C)[C@H](OC)COC(=O)[C@@H](C)NC(=O)CC=C[C@H]1C", 1.16],
  ["OC[C@H]1O[C@H](C#Cc2ccccc2)C=C[C@@H]1O", 0.498],
  ["CCc1cc2c(nc1CC)CCN(CCC(C)=NOC(C)CN1CCCCc3nc(C)c(C)cc31)C2 (stereo unspecified)", 0.932],
  ["CO[C@@H]1COC(=O)[C@H](CCSC)NC(=O)CC=C[C@@H](C)COC(=O)[C@@H]2CCCN2C(=O)CC=C[C@H]1C", 0.862],
  ["CC(=O)OC[C@H]1O[C@@H](ON=C(C)C)[C@H](OC(C)=O)[C@@H](OC(C)=O)[C@@H]1OC(C)=O", 0.0419],
  ["CCN1C(=O)[C@H]2[C@H]3[C@H](O)[C@H](O)CC(=NOCC[C@@H]4C=C[C@H](OC(C)=O)[C@@H](COC(C)=O)O4)[C@@H]3CC[C@H]2C1=O", 0.478],
  ["CCOC(=O)[C@H](Cc1ccccc1)NC(=O)CCC1CC(OC(=O)NCc2cccc3ccccc23)CC2(CCCC(COC(=O)NCc3ccc4c(c3)OCO4)O2)O1 (stereo partly specified)", 0.453]
]}

Values compiled from PubChem BioAssay.
